Listed here: items and their measured self-aminoacylation.
- System: biotinyl-Trp-oxazolone
- Test Protocol: self-aminoacylation, catalytic enhancement (BWO) (fold over background); higher = more active; k-Seq, kA / k0A0; sequences stand for … in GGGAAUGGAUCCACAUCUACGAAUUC…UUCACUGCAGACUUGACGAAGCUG
Fewer inactive variants are shown than the library holds.
Readout Type: self-aminoacylation

>>> test_result("CCACACUUCAAGCGAUAGGUC [Fam1B.1 aminoacylation ribozyme variant]")
0.453
>>> test_result("CUACUUCAAACAAUAGGUCUA [Fam1A.1 aminoacylation ribozyme variant]")
0.756
>>> test_result("AUUCUCCUAGGUUAUCGGGUG [Fam2.2 aminoacylation ribozyme variant]")
6.28
>>> test_result("CCAAACUUCAAGCAAUCAGUC [Fam1B.1 aminoacylation ribozyme variant]")
3.03
>>> test_result("AUUACCCUGGUCUUCAAGUGA [Fam2.1 aminoacylation ribozyme variant]")
5.67
>>> test_result("AUUACCCUUGUCAUCUAGUGA [Fam2.1 aminoacylation ribozyme variant]")
8.68
>>> test_result("AUUACGCUGGUCAUCGAGUGA [Fam2.1 aminoacylation ribozyme variant]")
5.76
>>> test_result("CUACGUCGAACAAUCGGUCUG [Fam1A.1 aminoacylation ribozyme variant]")
1.3
>>> test_result("AUUCCCCUAGGCCAUCGGGUG [Fam2.2 aminoacylation ribozyme variant]")
12.5
>>> test_result("AAGUAUGCUAAUAGUCGCAUG [Fam3.1 aminoacylation ribozyme variant]")
1.84
>>> test_result("CUACUUCAAACAAUCAGACUG [Fam1A.1 aminoacylation ribozyme variant]")
2.98
>>> test_result("CCACACUUCAAACGAUCGGUC [Fam1B.1 aminoacylation ribozyme variant]")
4.08
>>> test_result("AUUUACCUAGGUCCUCGGGUG [Fam2.2 aminoacylation ribozyme variant]")
4.31
>>> test_result("AAGUUUGCUAAUGGUCGCGAG [Fam3.1 aminoacylation ribozyme variant]")
1.82
>>> test_result("UCACACUUCAAGCAAUCAGUC [Fam1B.1 aminoacylation ribozyme variant]")
5.72
>>> test_result("ACUCACAUAGGUCAUCGGGUG [Fam2.2 aminoacylation ribozyme variant]")
10.2
>>> test_result("AUUCACCUAGGUCAUCGCCUG [Fam2.2 aminoacylation ribozyme variant]")
2.11
>>> test_result("AAAUUCGCUAAUAGUCGCAAG [Fam3.1 aminoacylation ribozyme variant]")
2.09
